Test system: T-47D breast
Assay: NCI-60 one-dose screen, 48 h
Details: 10 µM unless noted
About 83,000 compounds went through this panel and 20% of them were active in at least one assay; those are over-represented in the sample as a whole. Calls of active or inactive are those of the source. How the source made its calls: active means growth percent below 10; inactive means the rest.
Labels: active, inactive

{"Compound": "CCOC(=O)c1cc2c(n1Cc1cccc(OC)c1)-c1oncc1CCC2", "Label": "inactive"}
{"Compound": "COc1ccc(Nc2nc(N/N=C/c3ccc(O)cc3)nc(Nc3ccc([N+](=O)[O-])cc3)n2)cc1", "Label": "inactive"}
{"Compound": "O=C(CCc1nnc2sc(-c3ccc(Cl)cc3Cl)nn12)c1nc2ncccc2[nH]1", "Label": "active"}
{"Compound": "O=C(c1ccccc1)N(C(=S)NCCc1ccc(Cl)cc1)c1ccc(Cl)cc1", "Label": "inactive"}
{"Compound": "CN1CCN(c2nc(Nc3ccc(O)cc3)nc3ccccc23)CC1", "Label": "inactive"}
{"Compound": "O=Nc1c(O)ccc2ccccc12.O=Nc1c(O)ccc2ccccc12.O=Nc1c([O-])ccc2ccccc12.[Fe+3]", "Label": "inactive"}
{"Compound": "COc1ccc(/C=C/C(=O)c2ccc(Nc3nc(NCCO)nc(Nc4ccc(Cl)cc4)n3)cc2)cc1", "Label": "inactive"}
{"Compound": "C#CCn1cc(C=C2C(=O)NC(=O)NC2=O)c2cc(Cl)ccc21", "Label": "inactive"}
{"Compound": "CC1(C)CC2(C)OC2C2(C1)N=NC(=Nc1ccccc1)O2 (stereo not given)", "Label": "inactive"}
{"Compound": "COC(=O)c1c2c(c(C)[n+]([O-])c1C)C(=O)C=C(NCc1ccccc1)C2=O", "Label": "active"}

* * *

System: UO-31 renal
Assay: NCI-60 one-dose screen, 48 h
Conditions: 10 µM unless noted
Description: Growth inhibition of the UO-31 human tumor cell line is measured as a screen for anti-cancer activity. Cells are grown in 96 well plates and exposed to the test compound for 48 hours. Compounds are tested at a single concentration, which is 10^-5 M for most compounds. The reported endpoint is percent growth (GI% or GIPRCNT), where numbers from 0 - 100% represent growth inhibition, and numbers from -100% - 0 represent cell death. For example, a value of 40 represents 60% growth inhibition. […]
This is part of a sample that, as a whole, favours compounds with a hit. Of some 83,000 tested, about 20% had one in any assay. The source made the active and inactive calls. The calls were made as follows: active = growth percent below 10; inactive = the rest.
Classes used: active, inactive

{"Molecule": "Cc1cccc2c(=O)c3c(sc12)c(N1CCNCC1)nc1ccccc13", "Label": "inactive"}
{"Molecule": "COc1cc(C2C(C#N)=C(N)OC3=C2C(=O)c2ccccc2C3=O)cc(OC)c1O (stereo not given)", "Label": "inactive"}
{"Molecule": "CC(=O)n1cc(-c2c[nH]c3ccccc23)c(-c2ccc(Cl)cc2)n1", "Label": "inactive"}
{"Molecule": "Cc1ccc2nc(NC(=O)CSC(=S)N3CCN(c4ccccc4)CC3)sc2c1", "Label": "inactive"}
{"Molecule": "COc1ccc(C2=Nn3c(NN)nnc3SC2)cc1", "Label": "inactive"}
{"Molecule": "CCCCCCn1c(=N)n(CC(O)COc2cccc(C)c2)c2ccccc21 (stereo not given)", "Label": "active"}
{"Molecule": "Cc1nc(Nc2ccccn2)sc1C(=O)/C=C/c1ccc(Cl)cc1", "Label": "inactive"}
{"Molecule": "COc1cccc(C2=NN3C(C2)c2ccccc2OC3c2ccc(/C=C3\\SC(=O)NC3=O)cc2)c1 (stereo not given)", "Label": "inactive"}
{"Molecule": "CCOC(=O)C1=C(C)c2ccc(OC)c(OC)c2C1", "Label": "inactive"}
{"Molecule": "CN1CCN(Cc2ccc(NC(=O)c3cncc(C#Cc4nc(N)nc5[nH]ncc45)c3)cc2C(F)(F)F)CC1", "Label": "inactive"}

* * *

// reported growth per item
System: RXF 393 renal
Test: NCI-60 one-dose screen, 48 h (100 = growth as untreated, 0 = no growth, -100 = all killed)
Settings: 10 µM unless noted
This is part of a sample that, as a whole, favours compounds with a hit. Of some 83,000 tested, about 20% had one in any assay.

{"Molecule": "O=C(c1nc2ccccc2[nH]1)C1[C@@H](c2cccc(O)c2)C2CC3CCCCC3N2[C@@]12C(=O)Nc1cc(Cl)ccc12 (some centres undefined)", "Assayed System": "RXF 393 renal", "growth [%]": 1.99}
{"Molecule": "O=C(CN1C=NC2C(N3CCOCC3)=NC=NC21)c1cccc2ccccc12 (centres undefined)", "Assayed System": "RXF 393 renal", "growth [%]": 100}
{"Molecule": "CCN1CCN(c2cc(C)c3cc(NC(=O)c4ccc(OC)c(OC)c4)ccc3n2)CC1", "Assayed System": "RXF 393 renal", "growth [%]": 31.1}
{"Molecule": "Cn1cc(-c2ccc3ncc(-c4ccc(CC(=O)Nc5cc(C(C)(C)C)no5)cc4)nc3c2)cn1", "Assayed System": "RXF 393 renal", "growth [%]": 32.3}
{"Molecule": "CCN1C(=O)N(CC)C2Nn3c(s/c(=C4\\C(=O)N(C(C)C)c5ccccc54)c3=O)=NC21 (centres undefined)", "Assayed System": "RXF 393 renal", "growth [%]": 44.5}
{"Molecule": "Cc1c(C(=O)OCCO)cc(-c2ccc(Cl)cc2)n1-c1ccc(Cl)cc1Cl", "Assayed System": "RXF 393 renal", "growth [%]": 62.8}
{"Molecule": "O=c1oc2ccc(Cl)cc2c(=O)n1-c1cc(C(F)(F)F)cc(C(F)(F)F)c1", "Assayed System": "RXF 393 renal", "growth [%]": -5.99}
{"Molecule": "O=C(Nc1ccc(-c2nc3cc4ccccc4cc3[nH]2)cc1)c1cccc(Br)c1", "Assayed System": "RXF 393 renal", "growth [%]": 29}
{"Molecule": "O=C(Nc1ccc(N2CCNCC2)cn1)c1[nH]ncc1Nc1ncnc2sc3c(c12)CCC3", "Assayed System": "RXF 393 renal", "growth [%]": 18.6}

* * *

System: COLO 205 colon
Assay: NCI-60 one-dose screen, 48 h (100 = growth as untreated, 0 = no growth, -100 = all killed)
Details: 10 µM unless noted
About 83,000 compounds went through this panel and 20% of them were active in at least one assay; those are over-represented in the sample as a whole. Active and inactive are the calls of the source. Rule for the calls: active = growth percent below 10; inactive = the rest.

{"Compound": "COc1ccc(Cn2c(Br)c3c(c2Br)-c2nc(NC(=O)c4ccc(OC)cc4)sc2CC3)cc1", "Assayed System": "COLO 205 colon", "growth": "103% (inactive)"}
{"Compound": "O=C(Nc1ccc(Br)cc1F)c1cc(I)ccc1O", "Assayed System": "COLO 205 colon", "growth": "104% (inactive)"}
{"Compound": "O=C(Nc1ccc(I)cc1F)c1cc(Cl)ccc1O", "Assayed System": "COLO 205 colon", "growth": "42.8% (inactive)"}
{"Compound": "Cc1c(-c2csc(-n3nc(C(F)(F)F)cc3C(F)(F)F)n2)no[n+]1[O-]", "Assayed System": "COLO 205 colon", "growth": "112% (inactive)"}
{"Compound": "CN1C(=O)N(C)C2Nn3c(s/c(=C4\\C(=O)N(CCc5ccccc5)c5ccccc54)c3=O)=NC21 (centres undefined)", "Assayed System": "COLO 205 colon", "growth": "60.1% (inactive)"}
{"Compound": "CSc1nc2c(c(=O)[nH]1)N=C1c3ccccc3C(=O)C1C(c1ccccc1)N2 (centres undefined)", "Assayed System": "COLO 205 colon", "growth": "33.5% (inactive)"}
{"Compound": "Cc1nc(Nc2ccccn2)sc1C(=O)/C=C/c1ccc(Cl)cc1", "Assayed System": "COLO 205 colon", "growth": "-21.5% (active)"}
{"Compound": "COC(=O)/C(CCC=C(C)C)=C1\\[C@@H](OC(C)=O)C[C@@]2(C)[C@H]1CC(=O)N[C@H]1[C@@]3(C)CCNC(=O)[C@@H](C)[C@@H]3CC[C@@]12C", "Assayed System": "COLO 205 colon", "growth": "109% (inactive)"}
{"Compound": "Nc1ccn(C2O[C@H](CO)[C@@H](O)[C@H]2O)c(=O)n1 (some centres undefined)", "Assayed System": "COLO 205 colon", "growth": "110% (inactive)"}

* * *

Below: a set of entries, each annotated with reported growth.
Tested on: MDA-MB-435 melanoma
Test: NCI-60 one-dose screen, 48 h (100 = growth as untreated, 0 = no growth, -100 = all killed)
Settings: 10 µM unless noted
Compounds without any hit were thinned out: in the full panel of roughly 83,000, 20% have a hit.

{"Compound": "COc1ccc(C(=O)C2CC2c2ccc(Cl)cc2)cc1 (stereo unspecified)", "growth [%]": 95.6}
{"Compound": "CCOC(=O)c1c2c(n3cccc(Cl)c13)C(=O)c1ncccc1C2=O", "growth [%]": 79.9}
{"Compound": "CCCCN1CCN(c2ccc3nc(-c4ccc5nc(-c6ccc(C(F)(F)F)cc6)[nH]c5c4)[nH]c3c2)CC1", "growth [%]": -85.3}
{"Compound": "O=C1N=c2ccccc2=C1c1sc(=Nc2ccccc2)n(Nc2ccccc2)c1O", "growth [%]": -23}
{"Compound": "COc1ccc(C2=C(c3cccc(OC)c3)C(=O)c3ccc(C)nc3C2=O)cc1", "growth [%]": 32.2}
{"Compound": "Cc1cc2c(c(C)c1Cl)C(=O)/C(=C/c1cccc([N+](=O)[O-])c1)O2", "growth [%]": 99.5}
{"Compound": "COc1cc2nc(NC3CCCC3)nc(NC3CCN(C(C)C)CC3)c2cc1OC", "growth [%]": -34.3}
{"Compound": "O=C(CN1C(=O)/C(=C\\c2ccc(Cl)cc2)SC1=S)Nc1ncc(Cc2ccc(Cl)cc2)s1", "growth [%]": 110}
{"Compound": "O=C(/C=C/c1cccc(Cl)c1)OCc1ccc2cc1OCC#C/C=C\\C#CCO2", "growth [%]": 106}
{"Compound": "NCCOc1ncccc1/C=C1\\c2ccccc2-c2ccc(F)cc21", "growth [%]": 60.7}
{"Compound": "Cc1ccc(S(=O)(=O)c2c(COC(=O)c3cccc(C)c3)c(-c3ccccc3)nn2C)cc1", "growth [%]": -33.7}
{"Compound": "COc1ccc(OC)c(N(CCN2C(=O)c3ccccc3C2=O)C(=O)CCl)c1", "growth [%]": 81.5}
{"Compound": "Cc1nn(-c2nc3ccccc3[nH]2)c2c1C(c1ccc(OCC(N)=O)cc1)CC(=O)N2 (stereo unspecified)", "growth [%]": 98.8}
{"Compound": "O=C(NCc1ccco1)C1CN(c2ccc(Cl)cc2)N(c2ccc(Cl)cc2)C1=O (stereo unspecified)", "growth [%]": -32.5}
{"Compound": "COc1ccc(-n2c(C(O)c3ccccc3)nn(CN3CCOCC3)c2=S)cc1 (stereo unspecified)", "growth [%]": 106}
{"Compound": "Clc1ccc(Oc2ccc(Nc3ncnc4onc(-c5ccccc5)c34)cc2)c(Cl)c1", "growth [%]": 103}
{"Compound": "CCOC(=O)c1cc2c(n1Cc1cc(OC)c(OC)c(OC)c1)-c1oncc1CCC2", "growth [%]": -53.9}
{"Compound": "COC(=O)/C(=C\\c1c(-c2ccccc2)[nH]c2ccccc12)S(C)(=O)=O", "growth [%]": 4.05}
{"Compound": "NCCNc1nc2ccc(F)cc2c2c(=O)c3cc(F)ccc3sc12", "growth [%]": 13.4}
{"Compound": "NNC(=O)CNC(=O)Nc1n[nH]c(=S)s1", "growth [%]": 110}
{"Compound": "CCCN1C(=O)N(CCC)C2C1NN=c1s/c(=C3\\C(=O)N(C(C)C)c4ccccc43)c(=O)n12 (stereo unspecified)", "growth [%]": -7.13}
